- test: Luciferase activity of purified RLuc mutants (light output integrated over 10 s, luminometer)
- Assay type: biochemical
- cond: bisdeoxycoelenterazine; relative to native enzyme
Parameter: Activity (relative to RLuc) bdc. Scope: all listed entries.
Output spec: single numeric token, no unit.

In the examples that follow, each entry is paired with its recorded Activity (relative to RLuc) bdc.
C124A/S130A: RLuc mutant C124A/S130A (protein) MASKVYDPEQRKRMITGPQWWARCKQMNVLDSFINYYDSEKHAENAVIFLHGNAASSYLWRHVVPHIEPVARCIIPDLIGMGKSGKSGNGSYRLLDHYKYLTAWFELLNLPKKIIFVGHDWGAALAFHYAYEHQDKIKAIVHAESVVDVIESWDEWPDIEEDIALIKSEEGEKMVLENNFFVETMLPSKIMRKLEPEEFAAYLEPFKEKGEVRRPTLSWPREIPLVKGGKPDVVQIVRNYNAYLRASDDLPKMFIESDPGFFSNAIVEGAKKFPNTEFVKVKGLHFSQEDAPDEMGKYIKSFVERVLKNEQ	2.6
A54P/A55T/C124A: RLuc mutant A54P/A55T/C124A (protein) MASKVYDPEQRKRMITGPQWWARCKQMNVLDSFINYYDSEKHAENAVIFLHGNPTSSYLWRHVVPHIEPVARCIIPDLIGMGKSGKSGNGSYRLLDHYKYLTAWFELLNLPKKIIFVGHDWGAALAFHYSYEHQDKIKAIVHAESVVDVIESWDEWPDIEEDIALIKSEEGEKMVLENNFFVETMLPSKIMRKLEPEEFAAYLEPFKEKGEVRRPTLSWPREIPLVKGGKPDVVQIVRNYNAYLRASDDLPKMFIESDPGFFSNAIVEGAKKFPNTEFVKVKGLHFSQEDAPDEMGKYIKSFVERVLKNEQ	0.22

// switching to the query molecule
# molecule C124A/M295I: RLuc mutant C124A/M295I (protein) MASKVYDPEQRKRMITGPQWWARCKQMNVLDSFINYYDSEKHAENAVIFLHGNAASSYLWRHVVPHIEPVARCIIPDLIGMGKSGKSGNGSYRLLDHYKYLTAWFELLNLPKKIIFVGHDWGAALAFHYSYEHQDKIKAIVHAESVVDVIESWDEWPDIEEDIALIKSEEGEKMVLENNFFVETMLPSKIMRKLEPEEFAAYLEPFKEKGEVRRPTLSWPREIPLVKGGKPDVVQIVRNYNAYLRASDDLPKMFIESDPGFFSNAIVEGAKKFPNTEFVKVKGLHFSQEDAPDEIGKYIKSFVERVLKNEQ ; its Activity (relative to RLuc) bdc = 0.86
